Recorded log10 of Kinact/Kl, one value per entry.
- target-entity: Human Polθ polymerase domain (aa1820-2590) (Homo sapiens)
- Construct: Human Polθ polymerase domain (aa1820-2590) was expressed in E. coli; made in house; host or cells: E. coli
- procedure-summary: Polθ Polymerase Domain Kinact/KI Assay (PicoGreen)
- Type: biochemical
- test-context: 0.8 nM Polθ, 100 nM DNA substrate, kobs vs [I] fit for 2-step covalent inhibitor
observation-type: log10 of Kinact/Kl (log10 of the value in M⁻¹ s⁻¹)

molecule	target-entity	observation-type	reported-value
C#CC(=O)N1Cc2nc(CN3C[C@H]4CC(=O)N(c5cc(C(F)(F)F)cc(C)n5)[C@@H]4C(=O)N(C)c4cccc(Cl)c43)cn2C[C@H]1C (racemic) [Example 172b]	Human Polθ polymerase domain (aa1820-2590) (Homo sapiens)	log10 of Kinact/Kl	5.45
C=CC(=O)N1Cc2cc(CN3C[C@H]4CC(=O)N(c5cc(C(F)(F)F)cc(C)n5)[C@@H]4C(=O)N(C)c4cccc(Cl)c43)cnc2[C@@H]1CC#N (racemic) [Example 292a]	Human Polθ polymerase domain (aa1820-2590) (Homo sapiens)	log10 of Kinact/Kl	6.47
C=CC(=O)N1CC(N2CCC(CN3C[C@H]4CC(=O)N(c5cc(C(F)(F)F)cc(C)n5)[C@@H]4C(=O)N(C)c4cccc(Cl)c43)C(O)C2)C1 (some centres unmarked)	Human Polθ polymerase domain (aa1820-2590) (Homo sapiens)	log10 of Kinact/Kl	5.91
C=CC(=O)N1Cc2nc(CN3C[C@H]4CC(=O)N(c5cc(C(F)(F)F)cc(C)n5)[C@@H]4C(=O)Nc4cccc(Cl)c43)cn2C[C@@H]1C (racemic) [Example 144b]	Human Polθ polymerase domain (aa1820-2590) (Homo sapiens)	log10 of Kinact/Kl	6.30
C=CC(=O)N1C[C@@H](n2cnc(CN3C[C@H]4CC(=O)N(c5cc(C(F)(F)F)cc(C)n5)[C@@H]4C(=O)N(C)c4cccc(C)c43)c2)[C@@H](F)C1 (single isomer, unassigned) [Example 326b]	Human Polθ polymerase domain (aa1820-2590) (Homo sapiens)	log10 of Kinact/Kl	6.18

---

- target-entity: Human Polθ polymerase domain (aa1820-2590) (Homo sapiens, UniProt O75417)
- Construct: Human Polθ polymerase domain (aa1820-2590) was expressed in E. coli; made in house; host or cells: E. coli
- procedure-summary: Polθ Polymerase Domain Kinact/KI Assay (PicoGreen)
- Format: biochemical
- test-context: 0.8 nM Polθ, 100 nM DNA substrate, kobs vs [I] fit for 2-step covalent inhibitor

compound	unit-of-measurement	Kinact/Kl
C=CC(=O)N1CC2(CN(CCN3C[C@H]4CC(=O)N(c5cc(C(F)(F)F)cc(C)n5)[C@@H]4C(=O)N(C)c4cccc(Cl)c43)C[C@H]3COCCN32)C1 (racemic) [Example 26b]	M⁻¹ s⁻¹	1.29e+06
C=CC(=O)N1Cc2ncc(CN3C[C@H]4CC(=O)N(c5cc(C(F)(F)F)cc(C)n5)[C@@H]4C(=O)N(C)c4cccc(Cl)c43)cc2[C@@H]1CC#N (racemic) [Example 291b]	M⁻¹ s⁻¹	1.48e+06
Cc1cc(C(F)(F)F)cc(N2C(=O)C[C@@H]3CN(Cc4cn5c(n4)CN(C(=O)/C=C/C(F)(F)F)CC5)c4c(Cl)cccc4N(C)C(=O)[C@H]32)n1	M⁻¹ s⁻¹	1.35e+06
C=C(CN(C)C)C(=O)N1CC(CCCN2C[C@H]3CC(=O)N(c4cc(C(F)(F)F)cc(C)n4)[C@@H]3C(=O)N(C)c3cccc(Cl)c32)C1	M⁻¹ s⁻¹	1.99e+06
C=CC(=O)N1CC(n2cnc(CN3C[C@H]4CC(=O)N(c5cc(C(F)(F)F)cc(C)n5)[C@@H]4C(=O)N(C)c4cc(F)ccc43)c2)C1	M⁻¹ s⁻¹	850000

---

Recorded Kinact/Kl, one value per entry.
- target-entity: Human Polθ polymerase domain (aa1820-2590) (Homo sapiens, UniProt O75417)
- Construct: Human Polθ polymerase domain (aa1820-2590) was expressed in E. coli; made in house; host or cells: E. coli
- procedure-summary: Polθ Polymerase Domain Kinact/KI Assay (PicoGreen)
- Type: biochemical
- test-context: 0.8 nM Polθ, 100 nM DNA substrate, kobs vs [I] fit for 2-step covalent inhibitor

compound	Kinact/Kl (M⁻¹ s⁻¹)
C=CC(=O)N1CC(N2CC[C@H](CN3C[C@H]4CC(=O)N(c5cc(C(F)(F)F)cc(C)n5)[C@@H]4C(=O)N(C)c4cccc(F)c43)C2)C1 [Example 213]	1.08e+06
C=CC(=O)N1CCN(c2cc(N3C[C@H]4CC(=O)N(c5cc(C(F)(F)F)cc(C)n5)[C@@H]4C(=O)N(C)c4cccc(F)c43)ccn2)CC1 [Example 53]	24000
C#CC(=O)N1Cc2nc(CN3C[C@H]4CC(=O)N(c5cc(C(F)(F)F)cc(C)n5)[C@@H]4C(=O)N(C)c4cccc(C)c43)cn2C[C@H]1C (racemic) [Example 199]	1.38e+06

---

- target-entity: Human Polθ polymerase domain (aa1820-2590) (Homo sapiens, UniProt O75417)
- Construct: Human Polθ polymerase domain (aa1820-2590) was expressed in E. coli; made in house; host or cells: E. coli
- Sequence (O75417 1820-2590): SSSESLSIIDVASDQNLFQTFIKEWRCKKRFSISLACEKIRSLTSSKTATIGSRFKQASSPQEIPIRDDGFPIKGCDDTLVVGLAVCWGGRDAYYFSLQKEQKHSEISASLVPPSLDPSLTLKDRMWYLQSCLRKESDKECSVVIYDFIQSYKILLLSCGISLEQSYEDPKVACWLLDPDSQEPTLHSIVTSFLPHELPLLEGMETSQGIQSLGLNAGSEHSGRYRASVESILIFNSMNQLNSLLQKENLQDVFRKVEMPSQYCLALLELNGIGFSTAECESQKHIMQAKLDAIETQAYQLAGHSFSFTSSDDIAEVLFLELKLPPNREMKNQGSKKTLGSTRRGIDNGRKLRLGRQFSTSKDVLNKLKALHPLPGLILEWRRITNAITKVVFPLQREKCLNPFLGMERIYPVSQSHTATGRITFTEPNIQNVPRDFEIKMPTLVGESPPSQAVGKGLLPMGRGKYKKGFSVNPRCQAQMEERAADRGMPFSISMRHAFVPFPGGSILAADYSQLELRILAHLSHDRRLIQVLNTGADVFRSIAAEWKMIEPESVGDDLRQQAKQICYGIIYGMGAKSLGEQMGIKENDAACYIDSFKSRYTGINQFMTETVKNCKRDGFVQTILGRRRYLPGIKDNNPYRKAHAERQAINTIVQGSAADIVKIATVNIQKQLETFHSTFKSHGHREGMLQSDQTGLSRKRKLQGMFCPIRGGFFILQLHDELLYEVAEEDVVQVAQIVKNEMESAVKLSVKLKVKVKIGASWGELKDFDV
- procedure-summary: Polθ Polymerase Domain Kinact/KI Assay (PicoGreen)
- Format: biochemical
- test-context: 0.8 nM Polθ, 100 nM DNA substrate, kobs vs [I] fit for 2-step covalent inhibitor

compound	unit-of-measurement	Kinact/Kl
C=CC(=O)N1Cc2ncc(CN3C[C@H]4CC(=O)N(c5cc(C(F)(F)F)cc(C)n5)[C@@H]4C(=O)N(C)c4cccc(C)c43)nc2C1	M⁻¹ s⁻¹	2.26e+06
C/C=C(\CN(C)C)C(=O)N1CC(OCCCN2C[C@H]3CC(=O)N(c4cc(C(F)(F)F)cc(C)n4)[C@@H]3C(=O)N(C)c3cccc(F)c32)C1	M⁻¹ s⁻¹	810000
C=CC(=O)N1Cc2ccc(CN3C[C@H]4CC(=O)N(c5cc(C(F)(F)F)cc(C)n5)[C@@H]4C(=O)N(C)c4cccc(Cl)c43)nc2[C@@H]1CC#N (racemic) [Example 289b]	M⁻¹ s⁻¹	1.24e+06
C=CC(=O)N1CC[C@H](N(C)CCN2C[C@H]3CC(=O)N(c4cc(C(F)(F)F)cc(C)n4)[C@@H]3C(=O)N(C)c3cccc(Cl)c32)[C@H](F)C1	M⁻¹ s⁻¹	2.32e+06
C=CC(=O)N1CCN(c2cccc(N3C[C@H]4CC(=O)N(c5cc(C(F)(F)F)cc(C)n5)[C@@H]4C(=O)N(C)c4cccc(F)c43)c2)CC1	M⁻¹ s⁻¹	110000
C=CC(=O)N1Cc2nc(CN3C[C@H]4CC(=O)N(c5cc(C(F)(F)F)cc(C)n5)[C@@H]4C(=O)N(C)c4cccc(Cl)c43)cn2C[C@H]1C(F)(F)F (racemic) [Example 293a]	M⁻¹ s⁻¹	880000
C=CC(=O)N1CCN2CCN(CCN3C[C@H]4CC(=O)N(c5cc(C(F)(F)F)cc(C)n5)[C@@H]4C(=O)N(C)c4cccc(F)c43)C(=O)[C@@H]2C1	M⁻¹ s⁻¹	310000
C=C(CN(C)C)C(=O)NCc1ccc(CN2C[C@H]3CC(=O)N(c4cc(C(F)(F)F)cc(C)n4)[C@@H]3C(=O)N(C)c3cccc(C)c32)cn1	M⁻¹ s⁻¹	2.93e+06
CC(=O)N1CCN(C/C=C/C(=O)Nc2ccc(CN3C[C@H]4CC(=O)N(c5cc(C(F)(F)F)cc(C)n5)[C@@H]4C(=O)N(C)c4cccc(C)c43)cc2)CC1	M⁻¹ s⁻¹	110000
C=CC(=O)N1CC(=O)N2CCN(CCN3C[C@H]4CC(=O)N(c5cc(C(F)(F)F)cc(C)n5)[C@@H]4C(=O)N(C)c4cccc(F)c43)CC2C1 (mixture of isomers) [Example 62b]	M⁻¹ s⁻¹	1.26e+06
Cc1cc(C(F)(F)F)cc(N2C(=O)C[C@@H]3CN(CCCC(F)(F)CNC(=O)/C=C/CN(C)C)c4c(Cl)cccc4N(C)C(=O)[C@H]32)n1	M⁻¹ s⁻¹	3e+06
